This collection of values is drawn from patent US6800637B2.

Counter-ions that a name gives are not always drawn.
Recorded metric: melting point

Molecule	Test value
CCCN(CCCc1c[nH]c2ccc(F)cc12)CC1COc2ccc3nc(C)ccc3c2O1 (stereo not shown) (as salt: hydrochloride) [Example 45]	164 to 170 °C
Cc1ccc2c3c(ccc2n1)OCC(CNCCCCc1c[nH]c2ccccc12)O3 (stereo not shown) (as salt: fumarate) [Example 9]	208 to 210 °C
Cc1ccc2c3c(ccc2n1)OCC(CNCCCn1ccc2c(F)cccc21)O3 (stereo not shown) (as salt: hydrochloride) [Example 46]	203 to 206 °C
Cc1ccc2c3c(ccc2n1)OC[C@H](CNCCCc1coc2ccccc12)O3 (as salt: fumarate) [Example 18]	165 to 170 °C
Cc1ccc2c3c(ccc2n1)OCC(CN(C)CCCc1c[nH]c2ccc(F)cc12)O3 (stereo not shown) (as salt: fumarate) [Example 7]	104 to 120 °C
Cc1ccc2c3c(ccc2n1)OCC(CNCCCCc1cn(C)c2ccc(F)cc12)O3 (stereo not shown) (as salt: hydrochloride) [Example 35]	229 to 235 °C
Cc1nc2ccc3c(c2o1)O[C@@H](CNCCCc1c[nH]c2ccc(C#N)cc12)CO3 (as salt: hydrochloride) [Example 30]	148 to 151 °C
